# measurementTarget: T1, IFN-αG (human, UniProt P01569 24-189)
# T1 construct: also called IFN-α5; alpha G
# assayProcedure: ProteOn, one antigen concentration
Kd values for the binders below.
Numbers only; they are read as pM.

Sample records with Kd:
* IFWM3361 (antibody, V domains shown, VH IFWH624, VL IFWL1051; converted mAb; also called IFWB3096) VH: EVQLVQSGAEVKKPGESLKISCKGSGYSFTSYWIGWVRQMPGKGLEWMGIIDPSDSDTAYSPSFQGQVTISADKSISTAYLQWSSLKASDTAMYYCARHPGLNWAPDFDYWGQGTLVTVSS VL: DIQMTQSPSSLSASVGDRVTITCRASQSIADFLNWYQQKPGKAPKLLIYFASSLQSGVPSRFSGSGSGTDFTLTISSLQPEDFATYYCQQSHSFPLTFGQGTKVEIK | 66
* IFWM3341 (antibody, V domains shown, VH IFWH624, VL IFWL991; converted mAb; also called IFWB3076) VH: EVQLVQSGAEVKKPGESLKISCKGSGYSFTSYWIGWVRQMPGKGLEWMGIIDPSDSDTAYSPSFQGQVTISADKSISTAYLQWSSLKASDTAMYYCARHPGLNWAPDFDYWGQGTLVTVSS VL: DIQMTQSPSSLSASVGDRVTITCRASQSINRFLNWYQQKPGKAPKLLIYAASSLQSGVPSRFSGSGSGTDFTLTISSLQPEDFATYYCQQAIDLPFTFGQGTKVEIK | 63

State the recorded Kd for this entry: IFWM3301 (antibody, V domains shown, VH IFWH591, VL IFWL983; converted mAb; also called IFWB3036) VH: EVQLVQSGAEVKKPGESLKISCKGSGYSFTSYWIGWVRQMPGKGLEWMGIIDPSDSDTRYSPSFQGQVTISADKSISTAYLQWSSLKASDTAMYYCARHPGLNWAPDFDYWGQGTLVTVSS VL: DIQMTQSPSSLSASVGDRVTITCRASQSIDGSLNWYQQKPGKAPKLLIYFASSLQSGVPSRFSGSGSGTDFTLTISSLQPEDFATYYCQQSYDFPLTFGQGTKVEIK
29
